Molecular target: Proto-oncogene tyrosine-protein kinase receptor Ret (Homo sapiens, UniProt P07949)
Sequence (P07949 whole entry): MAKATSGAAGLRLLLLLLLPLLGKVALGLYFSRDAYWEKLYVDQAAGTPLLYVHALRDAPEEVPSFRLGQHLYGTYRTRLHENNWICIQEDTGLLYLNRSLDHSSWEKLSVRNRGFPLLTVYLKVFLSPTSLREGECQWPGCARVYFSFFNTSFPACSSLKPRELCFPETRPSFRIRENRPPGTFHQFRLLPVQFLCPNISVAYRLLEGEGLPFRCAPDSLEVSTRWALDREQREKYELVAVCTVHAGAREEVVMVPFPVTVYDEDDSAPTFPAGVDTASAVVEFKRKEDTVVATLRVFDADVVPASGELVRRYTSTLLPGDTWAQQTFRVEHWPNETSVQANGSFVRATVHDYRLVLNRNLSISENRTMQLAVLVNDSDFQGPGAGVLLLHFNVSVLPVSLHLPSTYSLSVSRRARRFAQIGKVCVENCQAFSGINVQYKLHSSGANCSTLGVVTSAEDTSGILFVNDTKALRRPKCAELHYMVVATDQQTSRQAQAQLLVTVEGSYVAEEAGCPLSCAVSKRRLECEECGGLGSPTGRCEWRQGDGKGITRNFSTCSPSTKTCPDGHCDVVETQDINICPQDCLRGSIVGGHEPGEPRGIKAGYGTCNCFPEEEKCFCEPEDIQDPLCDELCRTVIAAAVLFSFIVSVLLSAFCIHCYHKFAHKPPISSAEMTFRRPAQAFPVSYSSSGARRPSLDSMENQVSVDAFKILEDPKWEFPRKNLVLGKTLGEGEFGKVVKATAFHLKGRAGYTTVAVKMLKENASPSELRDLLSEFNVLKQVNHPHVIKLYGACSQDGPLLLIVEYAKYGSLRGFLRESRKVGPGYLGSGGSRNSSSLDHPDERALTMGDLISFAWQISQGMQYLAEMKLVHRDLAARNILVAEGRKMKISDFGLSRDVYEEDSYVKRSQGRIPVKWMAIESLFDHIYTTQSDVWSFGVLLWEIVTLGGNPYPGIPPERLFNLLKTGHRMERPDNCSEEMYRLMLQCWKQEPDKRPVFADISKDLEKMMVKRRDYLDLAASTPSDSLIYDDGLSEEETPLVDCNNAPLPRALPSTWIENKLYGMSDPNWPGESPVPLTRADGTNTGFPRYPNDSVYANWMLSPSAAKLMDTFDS
Test: Inhibition of RET (unknown origin) assessed as maximal efficacy relative to control
reported_metric: Emax (%)

> print(dat)
                               input.smiles  unit.descriptor  recorded.number
1  COC(=O)[C@H](Cc1cnc[nH]1)NC(=O)Cc1cccc(O[C@H]2CCc3cc(-c4cncc(Oc5ccccc5)c4)ccc32)c1                %                0
2  CNC(=O)[C@H](NC(=O)Cc1cccc(Oc2cnc(Nc3ccccc3)nc2)c1)C1CCCCC1                %                0
3  NC(=O)Cc1cccc(O[C@H]2CCc3cc(-c4cnc(Nc5ccccc5)nc4)ccc32)c1                %                0

a: O[C@H]1CCc2cc(-c3cnc(Nc4ccccc4)nc3)ccc21
b: CNC(=O)[C@H](NC(=O)Cc1cccc(O[C@H]2CCc3cc(-c4cnc(Nc5cncnc5)nc4)ccc32)c1)C1CCCCC1
Looking at recorded values for Emax, does a or b come in lower? Choose, then provide that item's label. b
(b: 0%, a: 92%)

###

Biological target: UniProt O00451
Sequence (O00451 whole entry): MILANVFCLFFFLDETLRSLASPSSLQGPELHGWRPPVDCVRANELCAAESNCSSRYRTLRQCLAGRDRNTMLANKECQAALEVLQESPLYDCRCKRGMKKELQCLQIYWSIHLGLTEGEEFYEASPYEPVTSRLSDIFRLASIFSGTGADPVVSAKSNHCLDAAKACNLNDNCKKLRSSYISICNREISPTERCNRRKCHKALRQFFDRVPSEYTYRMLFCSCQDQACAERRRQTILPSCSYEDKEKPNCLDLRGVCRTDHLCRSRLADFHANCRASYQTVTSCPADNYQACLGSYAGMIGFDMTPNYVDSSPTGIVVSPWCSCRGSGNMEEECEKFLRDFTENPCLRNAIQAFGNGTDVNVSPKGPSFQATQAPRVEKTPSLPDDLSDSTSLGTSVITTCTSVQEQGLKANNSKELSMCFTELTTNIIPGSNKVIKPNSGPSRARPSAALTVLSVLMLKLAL
pIC50: −log10 of the molar value.
// reported pIC50 per item

Before answering, review these 3 worked examples.
> print(dat)
                               input.smiles  result
1  O[C@H]1CCc2cc(-c3cnc(Nc4ccccc4)nc3)ccc21  < 4.00
2  CNC(=O)[C@H](NC(=O)Cc1cccc(O[C@H]2CCc3cc(-c4cnc(Nc5cncnc5)nc4)ccc32)c1)C1CCCCC1  < 4.00
3  CNC(=O)[C@H](Cc1c[nH]cn1)NC(=O)Cc1cccc(O[C@H]2CCc3cc(-c4cnc(Nc5ccccc5)nc4)ccc32)c1    5.43

Here is the next item to consider.
Provide one value: measured pIC50 of CNC(=O)[C@H](NC(=O)Cc1cccc(O[C@H]2CCc3cc(-c4cncnc4)ccc32)c1)C1CCCCC1 < 4.00

###

Target: GDNF family receptor alpha-3 (Homo sapiens, UniProt O60609)
Sequence (O60609 whole entry): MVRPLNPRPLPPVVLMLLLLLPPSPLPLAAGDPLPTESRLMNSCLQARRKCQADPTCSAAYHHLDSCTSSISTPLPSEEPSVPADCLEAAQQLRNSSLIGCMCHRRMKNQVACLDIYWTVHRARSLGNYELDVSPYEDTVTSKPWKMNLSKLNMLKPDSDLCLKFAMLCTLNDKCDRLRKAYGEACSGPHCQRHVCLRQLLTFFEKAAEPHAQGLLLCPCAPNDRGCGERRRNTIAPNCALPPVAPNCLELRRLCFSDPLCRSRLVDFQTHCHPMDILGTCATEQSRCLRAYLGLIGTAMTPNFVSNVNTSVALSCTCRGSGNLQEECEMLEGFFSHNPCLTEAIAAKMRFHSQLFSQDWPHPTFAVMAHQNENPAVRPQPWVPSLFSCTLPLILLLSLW
Test: Inhibition of GFRalpha3 (unknown origin)
Entries and their IC50 values follow.

> print(dat)
                               input.smiles                           target.of.assay    result
1  CNC(=O)[C@H](NC(=O)Cc1cccc(Oc2cnc(Nc3ccccc3)nc2)c1)C1CCCCC1  GDNF family receptor alpha-3 (Homo sapiens, UniProt O60609)  > 100 µM

Look up IC50 of CNC(=O)[C@H](NC(=O)Cc1cccc(O[C@H]2CCc3cc(-c4cncnc4)ccc32)c1)C1CCCCC1 and report it. > 100 µM

Quick one: give measured IC50 for CNC(=O)Cc1cccc(O[C@H]2CCc3cc(-c4cnc(Nc5ccccc5)nc4)ccc32)c1 > 100 µM
